Attribution: patent US20240336909A1

- assay_target: T1, human EpCAM protein (human, UniProt P16422 24-265)
- T1 construct: biotinylated in the Octet assays; also called hu EpCAM; biotinylated human EpCAM protein
- T1 sequence (looked up): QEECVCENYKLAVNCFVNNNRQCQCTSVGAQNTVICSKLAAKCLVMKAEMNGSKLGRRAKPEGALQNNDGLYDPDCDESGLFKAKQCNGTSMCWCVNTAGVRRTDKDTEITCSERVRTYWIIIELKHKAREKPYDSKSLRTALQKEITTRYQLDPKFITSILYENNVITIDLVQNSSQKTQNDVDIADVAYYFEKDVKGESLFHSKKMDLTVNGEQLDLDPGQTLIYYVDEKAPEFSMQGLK
- experiment_summary: colorimetric ELISA
assay_readout: Human EpCAM/Control

Llama anti-EpCAM single domain antibody EPL57 (VHH, E. coli periplasmic extract) VHH: QVQLQESGGGLVHTGGSLRLSCAFSGDTFLRYAMGWFRQAPGKEREFVAAITWNGGNTDYADSLKGRFTISRDNTKNTVYLQMNSLRPEDTAVYYCAADLTFGLASSHYQYDYWGQGTQVTVSS :: 14 ratio
Llama anti-EpCAM single domain antibody EPL117 (VHH, E. coli periplasmic extract) VHH: QVQLQESGGGLVQAGGSLRLSCAASGNIVRMTNMAWYRQAPGKQREFVATISAGGSTTYVDSVKDRFTISRDNTKNTVYLQMNYLKPEDTAVYYCATGSILTNRGAIPGSWGHGTQVTVSS :: 4 ratio
Llama anti-EpCAM single domain antibody EPL60 (VHH, E. coli periplasmic extract) VHH: QVQLQESGGGLVQAGGSLRLSCAASEYILSMYRMAWYRQAPGKVRELVADMSSGGTTNYADFVKGRFTISRDNDRNTVYLQMNRLQPEDTAAYYCNVAGRTGPPSYDAFNNWGQGTQVTVSS :: 10 ratio
Llama anti-EpCAM single domain antibody EPL97 (VHH, E. coli periplasmic extract) VHH: QVQLQESGGGLVQAGGSLRLSCAASGIIFRGTTMGWFRQAPGKQRESVASISPLGTTSYSGSVEGRFTVSRDNAKNTLFLQMNSLKSEDTAVYYCNAIQVTNVGPRVYWGQGTQVTVSS :: 8 ratio
Llama anti-EpCAM single domain antibody EPL34 (VHH, E. coli periplasmic extract) VHH: QVQLQESGGGSVQAGGSLRLSCAASGFTFSSYYMSWVRQAPGKGLEWVSGIHYTGDWTNYADSVKGRFTISRDNAKNELYLEMNNLKPEDTAVYYCARGSDKGQGTQVTVSS :: 10 ratio
Llama anti-EpCAM single domain antibody EPL2 (VHH, E. coli periplasmic extract) VHH: QVQLQESGGGLVQPGGSLRLSCAASESISSFIAVGWYRQAPGKERELVAGINRSGFTYYTDSVKGRFSISRDNAKNTVLLQMTSLKPEDTAVYYCNAGGLYFSNAYTQGDYWGQGTQVTVSS :: 15 ratio
Llama anti-EpCAM single domain antibody EPL78 (VHH, E. coli periplasmic extract) VHH: QVQLQESGGGLVQPGGSLRLSCATSANRFNINVMGWYRQAPGQQRELVATINIGGSTDYADSVKGRFTISRDNAKNTVYLQLSDLKPEDTAVYYCNVKLRVSGPTGPNVYWGQGTQVTVSS :: 17 ratio
Llama anti-EpCAM single domain antibody EPL31 (VHH, E. coli periplasmic extract) VHH: QVQLQESGGGLVHTGGSLRLSCAASGDTFLRYAMGWFRQAPGKEREFVAAITWNGGNTDYAGSLKGRFTISRDNTKNTVYLQMNSLKPEDTAVYYCAADLTFGLASSHYQYDYWGQGTQVTVSS :: 7 ratio
Llama anti-EpCAM single domain antibody EPL49 (VHH, E. coli periplasmic extract) VHH: QVQLQESGGGLVQAGGSLRLSCAPSGRTSSIFGMGWFRQAPGKEREFVASINWSGGSTSYADSVKGRFTISRDNAKNEMYLQMNSLKFEDTAVYVCAAAVLTNKPSWNFWGQGTQVTVSS :: 8 ratio
Llama anti-EpCAM single domain antibody EPL125 (VHH, E. coli periplasmic extract) VHH: QVQLQESGGGLVQAGGSLRLSCAASGNVFRAATMAWYRQVPEKQREMVATIASGGTTNYADFVKGRFTISRDNAKNTVYLQMNTLKPEDTAVYYCNALYLTSLGPKSYWGQGTQVTVSS :: 8 ratio
Llama anti-EpCAM single domain antibody EPL90 (VHH, E. coli periplasmic extract) VHH: QVQLQESGGGLVQAGGSLRLSCAASGFIFRAASMAWYRQSPGNERELVASISSGAFTNYADSVKARFTISRDNAKNTVYLQMNSLKPEDTAVYFCGATFLRSDGHHTINGQGTQVTVSS :: 10 ratio
Llama anti-EpCAM single domain antibody EPL120 (VHH, E. coli periplasmic extract) VHH: QVQLQESGGGLVQAGGSLRLSCAASGFIFRAASISWYRQSPGNERELVATINSGGFTNYADSVLGRFTISRDNAKNTGYLQMNSLKPEDTAVYFCAATFLRSDGQPPIWGQGTQVTVSS :: 5 ratio
Llama anti-EpCAM single domain antibody EPL82 (VHH, E. coli periplasmic extract) VHH: QVQLQESGGGLVQAGGSLKLSCTASGTILSTMAWYRQAPGKQRELVATISRGGTTNYSDSVKGRFAISRDSTKNTVYLQMNSLKPEDTAVYYCNTPLTDYGMGYNWGQGTQVTVSS :: 4 ratio
Llama anti-EpCAM single domain antibody EPL189 (VHH, E. coli periplasmic extract) VHH: QVQLQESGGGLVQPGGSLRLSCAASGRINSINTMGWYRQAPGNQRELVAEITRGGTTNYADSVQGRYAISRDNAKNLVYLQMNSLKPEDTDVYYCNAQTFPTFSRPTGLDYWGQGTQVTVSS :: 12 ratio
Llama anti-EpCAM single domain antibody EPL118 (VHH, E. coli periplasmic extract) VHH: QVQLQESGGGLVQAGGSLRLSCAASGFIFRAASMGWFRQSPGNERELVATVSSGDFTNYADSVKGRFTISRDNAKNTVYLQMNSLKPEDTAVYFCGATFVRSDGHHTIYGQGTQVTVSS :: 5 ratio
